# test target: the molecule itself
# test method notes: FRET or BRET; homo-FRET (steady-state fluorescence anisotropy of EGFP, time-domain, TCSPC) at the plasma membrane of living transfected Jurkat cells on PLL-coated slides, 37 °C; semi-quantitative, calibrated by monomeric LAT and dimeric CD8α
property name: steady-state anisotropy, mean
Write no unit; give the number alone.

Query :: Value lookup for steady-state anisotropy, mean; key = EGFP-Nkrp1f (receptor, mouse (C57BL/6), UniProt Q8VD98 1-217, looked up, last residue V217; Vector pXJ41; also called f isoform; source: Jurkat, transiently transfected, living cells; COS-7, transiently transfected, in lysate; not shown: EGFP (with spacer GSGGGS), N-terminal, kept) MDTSKVHGNVKPFRCPGYKQASSPSFSPDACRCPHWHHLALKSGCAGLILLLLSLIGLSVLVRFLVQKPPIEKCSVAAQENRTELTGRSAILECPRYWHPHWNKCLFVSQISRPWAEGRDACSMEDAILLLIENKEELRFVQNLIKGKEQLFFIGLKYVQKEKIWKWIDGSILNPNLLRITGKDKENSCAIISHTEVFSDSCSSDNHWICQKTLIHV
Result :: 0.25
